Tested on: Klebsiella aerogenes DSM 30053
Assay: fold change of Histamine concentration vs plate DMSO controls (fold change (ratio)); higher = more amine produced, active = hit call of the paper (significant change in both replicates, either direction)
Conditions: incubation time: 27 h, anaerobic, 37 °C
Structures can show the parent of a compound that is named as a salt.
Assign Satisfied to entries whose fold change of Histamine concentration meets or exceeds 1; assign Not satisfied to the rest.

molecule="CCN(CC)Cc1cc(Nc2ccnc3cc(Cl)ccc23)ccc1O [Amodiaquine dihydrochloride dihydrate] (20 µM)" assigned_label=Satisfied
molecule="CCCCNc1ccc(C(=O)OCCN(C)C)cc1 [Tetracaine hydrochloride] (20 µM)" assigned_label=Satisfied
molecule="O=C(N[C@H](CO)[C@H](O)c1ccc([N+](=O)[O-])cc1)C(Cl)Cl [Chloramphenicol] (20 µM)" assigned_label="Not satisfied"
molecule="Cc1ccc(/C(=C\\CN2CCCC2)c2ccccn2)cc1 [Triprolidine hydrochloride] (20 µM)" assigned_label=Satisfied

Next up:
In: Reported fold change of Histamine concentration at or above 1? COC(=O)Nc1nc2ccc(SC(C)C)cc2[nH]1 [Methiazole] (20 µM)
Out: Not satisfied

---

System: Escherichia coli IAI1
Experiment: fold change of Putrescine concentration vs plate DMSO controls (fold change (ratio)); higher = more amine produced, active = hit call of the paper (significant change in both replicates, either direction)
Conditions: incubation time: 27 h, anaerobic, 37 °C
Structures can show the parent of a compound that is named as a salt.
ASSAY_METRIC: fold change of Putrescine concentration
Quick one: just the number, no unit, thanks!

Consider the following illustrative entries.
compound="CCCC(CCC)C(=O)O [Valproic acid] (20 µM)" val=0.943
compound="CC(=O)OCC(=O)[C@@]12OC3(CCCC3)O[C@@H]1C[C@H]1[C@@H]3CCC4=CC(=O)C=C[C@]4(C)[C@@]3(F)[C@@H](O)C[C@@]12C [Amcinonide] (20 µM)" val=1.02
compound="N=C(NCCCCCCNC(=N)NC(=N)Nc1ccc(Cl)cc1)NC(=N)Nc1ccc(Cl)cc1 [Chlorhexidine] (20 µM)" val=0.641
compound="NC(=O)c1cnccn1 [Pyrazinamide] (20 µM)" val=1.01
compound="CCN(CC)C(=O)N1CCN(C)CC1 [Diethylcarbamazine citrate] (20 µM)" val=0.988

In: Given the compound CCCc1nc(C)c2c(=O)nc(-c3cc(S(=O)(=O)N4CCN(CC)CC4)ccc3OCC)[nH]n12 [Vardenafil] (20 µM) , what is its reported fold change of Putrescine concentration?
Out: 1.01

In: Would you mind telling me what fold change of Putrescine concentration value was observed for N[C@@H](CSCCCO)C(=O)O [Fudosteine] (20 µM) ?
Out: 1.05

In: Give the measured fold change of Putrescine concentration of CCOc1ccc(NC(=O)CC(C)O)cc1 (stereo not given) [Bucetin] (20 µM) .
Out: 0.997

In: Name the reported fold change of Putrescine concentration value associated with the compound NNCCc1ccccc1 [Phenelzine sulfate] (20 µM)
Out: 1.12

In: Give the measured fold change of Putrescine concentration of CC(=O)OCC(=O)[C@@]1(O)CC[C@H]2[C@@H]3CCC4=CC(=O)CC[C@]4(C)[C@@]3(F)[C@@H](O)C[C@@]21C [Fludrocortisone acetate] (20 µM) .
Out: 1.09

---

System: Escherichia coli IAI1
Experiment: growth (OD595) fold change vs plate DMSO controls (fold change (ratio)); higher = more growth
Conditions: incubation time: 27 h, anaerobic, 37 °C
Counter-ions that a name gives are not always drawn.
Entries and their growth values follow.
Enter a number only.

Here are 2 compounds together with their reported answers.
compound="CC1CS(=O)(=O)CCN1/N=C/c1ccc([N+](=O)[O-])o1 (centres undefined) [Nifurtimox] (20 µM)" val=1.03
compound="C#C[C@]1(OC(C)=O)CC[C@H]2[C@@H]3CCC4=C[C@@H](OC(C)=O)CC[C@@H]4[C@H]3CC[C@@]21C [Ethynodiol diacetate] (20 µM)" val=0.814

In: Requested read-out growth, target or system Escherichia coli IAI1, entry OCCOCCN1CCN(C(c2ccccc2)c2ccc(Cl)cc2)CC1 (centres undefined) [Hydroxyzine dihydrochloride] (20 µM)
Out: 1.01

In: Find the measured growth: item CC[N+](C)(C)Cc1ccccc1Br [Bretylium tosylate] (20 µM) , target or system Escherichia coli IAI1.
Out: 1.02
